Source: ChEMBL document CHEMBL5380801

Assay: Stability of the compound in bicine buffer at pH 8.8 assessed as parent compound remaining at 100 uM measured after 24 hrs by HPLC analysis
Assay type: physicochemical
Details: read-out: Stability
Assay Endpoint: remaining at 24 h, 100 µM (%)

>>> measured_number("CCNC(=O)COc1cccc(N2CCC(=O)NC2=O)c1C")
95
>>> measured_number("Cc1c(C#CCNC(=O)OC(C)(C)C)cccc1N1CCC(=O)NC1=O")
93
>>> measured_number("Cc1c(OCC(=O)N2CCCCC2)cccc1N1CCC(=O)NC1=O")
95
>>> measured_number("CC(=O)NCCC#Cc1cccc(N2CCC(=O)NC2=O)c1C")
90

###

Target: Cereblon/Ikaros (Homo sapiens) (UniProt Q96SW2+Q13422)
Test: Protac activity at CRBN/IKZF1 in human MV4-11 cells assessed as induction of IKZF1 degradation at 1 to 10 uM measured after 24 hrs by Western blot analysis
Assay type: cell-based
Conditions: dose 1-10 µM
Activity calls are given as the source filed them. The rule behind the calls is not given here.
Assay Endpoint: Activity

>>> result("Cc1c(OCC(=O)N2CCCCC2)cccc1N1CCC(=O)NC1=O")
"inactive"
>>> result("CC(=O)NCCC#Cc1cccc(N2CCC(=O)NC2=O)c1C")
"inactive"
>>> result("CCNC(=O)COc1cccc(N2CCC(=O)NC2=O)c1C")
"inactive"
>>> result("Cc1c(C#CCNC(=O)OC(C)(C)C)cccc1N1CCC(=O)NC1=O")
"inactive"

###

Target: Protein cereblon/DNA damage-binding protein 1 (Homo sapiens, UniProt Q96SW2)
Sequence (Q96SW2 whole entry): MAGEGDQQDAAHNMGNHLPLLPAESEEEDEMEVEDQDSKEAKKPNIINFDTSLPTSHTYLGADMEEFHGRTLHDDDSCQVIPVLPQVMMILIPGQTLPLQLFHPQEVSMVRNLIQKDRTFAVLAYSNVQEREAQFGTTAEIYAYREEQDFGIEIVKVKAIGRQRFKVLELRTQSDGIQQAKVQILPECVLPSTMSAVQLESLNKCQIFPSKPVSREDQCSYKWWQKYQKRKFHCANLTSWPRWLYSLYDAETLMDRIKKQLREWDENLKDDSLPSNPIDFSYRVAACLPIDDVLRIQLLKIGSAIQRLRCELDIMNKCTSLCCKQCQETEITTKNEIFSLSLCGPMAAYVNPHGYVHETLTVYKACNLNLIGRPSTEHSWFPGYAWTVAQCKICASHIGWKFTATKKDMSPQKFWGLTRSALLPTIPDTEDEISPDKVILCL
Sequence (Q16531 whole entry, further chain): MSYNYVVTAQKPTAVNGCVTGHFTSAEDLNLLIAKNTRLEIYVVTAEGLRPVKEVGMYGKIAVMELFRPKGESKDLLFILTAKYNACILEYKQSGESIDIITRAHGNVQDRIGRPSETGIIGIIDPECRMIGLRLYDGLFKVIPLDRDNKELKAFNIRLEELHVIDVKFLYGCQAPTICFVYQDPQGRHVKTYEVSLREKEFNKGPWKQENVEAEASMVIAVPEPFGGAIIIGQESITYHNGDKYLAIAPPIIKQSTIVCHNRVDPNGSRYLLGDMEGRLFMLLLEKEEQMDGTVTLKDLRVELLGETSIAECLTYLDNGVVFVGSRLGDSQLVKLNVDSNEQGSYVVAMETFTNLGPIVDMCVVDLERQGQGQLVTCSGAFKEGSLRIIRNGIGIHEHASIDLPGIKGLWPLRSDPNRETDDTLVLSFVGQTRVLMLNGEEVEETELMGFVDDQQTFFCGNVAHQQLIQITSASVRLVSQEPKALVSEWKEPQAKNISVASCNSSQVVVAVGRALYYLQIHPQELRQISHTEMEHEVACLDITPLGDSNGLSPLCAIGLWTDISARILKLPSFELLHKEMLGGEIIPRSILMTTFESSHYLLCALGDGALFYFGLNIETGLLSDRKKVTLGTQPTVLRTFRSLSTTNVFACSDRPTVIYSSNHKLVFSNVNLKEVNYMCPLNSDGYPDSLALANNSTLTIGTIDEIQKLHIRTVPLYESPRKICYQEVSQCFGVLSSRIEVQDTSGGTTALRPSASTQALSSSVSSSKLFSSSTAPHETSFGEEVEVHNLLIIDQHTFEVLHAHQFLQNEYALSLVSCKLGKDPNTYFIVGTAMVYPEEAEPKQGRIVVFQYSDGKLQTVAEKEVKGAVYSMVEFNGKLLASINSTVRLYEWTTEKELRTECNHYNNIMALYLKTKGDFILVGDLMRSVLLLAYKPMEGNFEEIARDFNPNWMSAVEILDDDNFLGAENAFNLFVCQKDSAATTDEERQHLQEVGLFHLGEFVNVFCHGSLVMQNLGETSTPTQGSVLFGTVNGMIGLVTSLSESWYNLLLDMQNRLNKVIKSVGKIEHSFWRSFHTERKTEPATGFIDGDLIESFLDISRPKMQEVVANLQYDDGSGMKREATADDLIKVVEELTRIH
Assay: Binding affinity to recombinant human CRBN/DDB1 assessed as dissociation constant incubated for 20 mins by fluorescence polarization assay
Type: protein assay
Kd values by entry
State just the number; it will be interpreted in nM.

>>> measured_number("Cc1c(OCC(=O)OC(C)(C)C)cccc1N1CCC(=O)NC1=O")
1200

Find the recorded Kd belonging to CC(C)(C)OC(=O)NCC#Cc1cccc(N2CCC(=O)NC2=O)c1 and report it.
530

Find the recorded Kd belonging to Cc1c(OCC(=O)N2CCCCC2)cccc1N1CCC(=O)NC1=O and report it.
1100

###

Experiment: Stability of the compound in bicine buffer at pH 8.8 assessed as parent compound remaining at 100 uM measured after 2 hrs by HPLC analysis
Format: physicochemical
Settings: read-out: Stability
Assay Endpoint: remaining at 2 h, 100 µM (%)
State just the number; it will be interpreted in %.

Find the recorded remaining at 2 h, 100 µM belonging to Nc1cccc2c1CN(C1CCC(=O)NC1=O)C2=O (stereo unspecified) [LENALIDOMIDE] and report it.
20

###

Assay: Stability of the compound in potassium phosphate buffer at pH 7.4 assessed as parent compound remaining at 100 uM measured after 24 hrs by HPLC analysis
Format: physicochemical
Settings: read-out: Stability
Assay Endpoint: remaining at 24 h, 100 µM

>>> result("Nc1cccc2c1CN(C1CCC(=O)NC1=O)C2=O (stereo not given) [LENALIDOMIDE]")
"39%"
>>> result("Cc1c(OCC(=O)N2CCCCC2)cccc1N1CCC(=O)NC1=O")
"> 99%"
>>> result("CC(=O)NCCC#Cc1cccc(N2CCC(=O)NC2=O)c1C")
"> 99%"

Find the recorded remaining at 24 h, 100 µM belonging to CCNC(=O)COc1cccc(N2CCC(=O)NC2=O)c1C and report it.
> 99%

Find the recorded remaining at 24 h, 100 µM belonging to Cc1c(C#CCNC(=O)OC(C)(C)C)cccc1N1CCC(=O)NC1=O and report it.
> 99%
